Where do these numbers come from? They come from paper PMC9486168.

We begin with a simple list: items and their reported Ki.
- target_or_test_system: AC1-C1b/CaM (Homo sapiens, UniProt P0DP23)
- Construct: made in house; host or cells: E. coli BL21-CodonPlus (DE3)-RIPL
- assay: AC1-C1b/CaM fluorescence polarization (FP) assay
- Format: binding
- experimental_setup: Cheng-Prusoff from FP IC50 and Kd
Structures can show the parent of a compound that is named as a salt.
result_type: Ki

molecule: CCc1oc2ccccc2c1C(=O)c1cc(Br)c(O)c(Br)c1 [Compound 12, Benzbromarone]
assay_result: 7.8 µM
//
molecule: CCC(C)CC(C)CCCCCCCCC(=O)NC1CC(O)C(NCCN)NC(=O)C2C(O)CCN2C(=O)C(C(O)CCN)NC(=O)C(C(O)C(O)c2ccc(O)cc2)NC(=O)C2CC(O)CN2C(=O)C(C(C)O)NC1=O (centres unmarked) [Compound 5, Caspofungin Acetate]
assay_result: 3 µM
//
molecule: CCCCC(CC)CNC(=N)NC(=N)NCCCCCCNC(=N)NC(=N)NCC(CC)CCCC (centres unmarked) [Compound 3, Alexidine]
assay_result: 0.67 µM
//
molecule: CCNC(=O)c1cc2c(=O)n(C)c(=O)n(C)c2s1 [Compound 16]
assay_result: 5.7 µM
//
molecule: O=C1c2c(O)ccc(O)c2C(=O)c2c(NCCNCCO)ccc(NCCNCCO)c21 [Compound 11, Mitoxantrone HCl]
assay_result: 6.5 µM
//
molecule: O=S(=O)(Nc1ccc2c(c1)N(S(=O)(=O)c1ccc(F)cc1)CCC2)c1cccc(F)c1 [Compound 18]
assay_result: 9.1 µM
//
molecule: CC(=O)Oc1c(Sc2ccc(Cl)cc2)c(C)nn1C(C)(C)C [Compound 13]
assay_result: 17.4 µM
//
molecule: CCCCCCCCOc1ccccc1C(=O)Nc1ccc(C(=O)OCC[N+](C)(CC)CC)cc1 [Compound 7, Otilonium]
assay_result: 4.1 µM
